System: MRSA (NCTC 12493)
Format: cell-based
TEST SETTINGS: NCTC 12493
Ends that are not written are not given here.
OBSERVED PROPERTY: MIC (µM)

SUBSTANCE	RELATION SIGN	TEST VALUE
KKFVPLKKIANIL-NH2 [Peptide T1CEh-KKP]	=	256
FVDLKKIANILNSIF-NH2 [Temporin-1CEh]	=	16
FVDLKKIANII-NH2 [Peptide T1CEa-t]	>	512
KKWVPWKKIANIL-NH2 [Peptide T1CEh-KKPWW]	=	32
FVDLKKIANIL-NH2 [Peptide T1CEh-t]	>	512
KKFVDLKKIANIL-NH2 [Peptide T1CEh-KK]	>	512
KKWVPLKKIANIL-NH2 [Peptide T1CEh-KKPW]	=	16
